biological target: Bifunctional epoxide hydrolase 2 (Homo sapiens); test: Inhibition of human soluble epoxide hydrolase
Sequence (P34913 whole entry): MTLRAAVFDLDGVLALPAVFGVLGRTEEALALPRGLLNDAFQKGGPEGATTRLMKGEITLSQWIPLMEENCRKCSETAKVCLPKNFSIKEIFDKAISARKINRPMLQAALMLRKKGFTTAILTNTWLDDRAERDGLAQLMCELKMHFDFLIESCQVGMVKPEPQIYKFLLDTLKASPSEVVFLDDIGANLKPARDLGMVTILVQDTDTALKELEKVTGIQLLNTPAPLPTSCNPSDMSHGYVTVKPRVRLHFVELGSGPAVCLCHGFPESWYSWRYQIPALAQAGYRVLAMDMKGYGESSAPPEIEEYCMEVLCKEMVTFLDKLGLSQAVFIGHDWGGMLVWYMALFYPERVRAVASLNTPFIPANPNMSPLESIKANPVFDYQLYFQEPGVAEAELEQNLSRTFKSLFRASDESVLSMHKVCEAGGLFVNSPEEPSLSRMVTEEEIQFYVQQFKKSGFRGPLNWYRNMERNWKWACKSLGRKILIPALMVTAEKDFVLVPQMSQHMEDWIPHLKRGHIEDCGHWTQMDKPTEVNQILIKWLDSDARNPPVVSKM
pIC50: −log10 of the molar value.
Quick rule: pIC50 of at least 8 means condition met, below that means condition not met.

**Q:** Identify whether the reported pIC50 of the following molecule is 8 or greater: O=C(Nc1ccc(Cl)cc1)N1CCCC(CCCO)(c2ccccc2)C1 (stereo not given)
**A:** condition met

**Q:** Hi team, for CC1(c2ccccc2)CCCN(C(=O)N[C@H]2C[C@@H]2c2ccccc2)C1 (stereo not given in full) , is the recorded pIC50 at or above 8?
**A:** condition met

**Q:** Does COC(=O)CCC1(c2ccccc2)CCCN(C(=O)Nc2ccc(Cl)cc2)C1 (stereo not given) have a reported pIC50 of at least 8?
**A:** condition met

**Q:** Evaluate O=C(O)CCC1(c2ccncc2)CCCN(C(=O)Nc2ccc(Cl)cc2)C1 (stereo not given) : pIC50 at minimum 8?
**A:** condition not met

**Q:** Does pIC50 meet or surpass 8 for O=C(O)CC1(c2ccccc2)CCCN(C(=O)Nc2ccc(Cl)cc2)C1 (stereo not given) ?
**A:** condition not met

* * *

MEASURED_PARAMETER: IC50

Tested system Epoxide hydrolase 1 (Homo sapiens); IC50 recorded for O=C(O)CCC1(c2ccccc2)CCCN(C(=O)Nc2ccc(Cl)cc2)C1 (stereo in doubt; 2b) was > 100 µM

// IC50 (Epoxide hydrolase 1 (Homo sapiens)) for O=C(O)CCC1(c2ccccc2)CCCN(C(=O)Nc2ccc(Cl)cc2)C1 (stereo in doubt) = > 100 µM

Value (IC50, Epoxide hydrolase 1 (Homo sapiens)) for record CNC(=O)CCC1(c2ccccc2)CCCN(C(=O)Nc2ccc(Cl)cc2)C1 (stereo not given) = > 100 µM

The reported Epoxide hydrolase 1 (Homo sapiens) IC50 of CC1(c2ccccc2)CCCN(C(=O)NCCCc2cccnc2)C1 (stereo not given) is 3 µM

Record N#CCCC1(c2ccccc2)CCCN(C(=O)Nc2ccc(Cl)cc2)C1 (stereo not given) / Epoxide hydrolase 1 (Homo sapiens), IC50 recorded as > 100 µM

* * *

test: Volume of distribution at steady state in rat at 1 mg/kg, iv and 2 mg/kg, po; assay type: ADME, organism-based; conditions: in vivo, read-out: Vdss
MEASURED_PARAMETER: Vd (L/kg)
Give the number; L/kg is assumed, so skip it.

GET /value?item= CC1(c2ccccc2)CCCN(C(=O)Nc2ccc(Cl)cc2)C1 (stereo not given) &field=Vd returns 12

Consider NC(=O)CCC1(c2ccccc2)CCCN(C(=O)Nc2ccc(Cl)cc2)C1 (stereo not given) . Its measured Vd is 0.88

Lab note: measured Vd of O=C(O)CCC1(c2ccccc2)CCCN(C(=O)Nc2ccc(Cl)cc2)C1 (stereo in doubt; 2b) was 0.8

Note to self: Vd recorded for O=C(Nc1ccc(Cl)cc1)N1CCCC(CCc2nn[nH]n2)(c2ccccc2)C1 (stereo not given) was 1.4

Sample CN(C)CCC1(c2ccccc2)CCCN(C(=O)Nc2ccc(Cl)cc2)C1 (stereo not given) ; Vd observed: 1.4

* * *

Biological target: Cytochrome P450 2C8 (Homo sapiens)
Sequence (P10632 whole entry): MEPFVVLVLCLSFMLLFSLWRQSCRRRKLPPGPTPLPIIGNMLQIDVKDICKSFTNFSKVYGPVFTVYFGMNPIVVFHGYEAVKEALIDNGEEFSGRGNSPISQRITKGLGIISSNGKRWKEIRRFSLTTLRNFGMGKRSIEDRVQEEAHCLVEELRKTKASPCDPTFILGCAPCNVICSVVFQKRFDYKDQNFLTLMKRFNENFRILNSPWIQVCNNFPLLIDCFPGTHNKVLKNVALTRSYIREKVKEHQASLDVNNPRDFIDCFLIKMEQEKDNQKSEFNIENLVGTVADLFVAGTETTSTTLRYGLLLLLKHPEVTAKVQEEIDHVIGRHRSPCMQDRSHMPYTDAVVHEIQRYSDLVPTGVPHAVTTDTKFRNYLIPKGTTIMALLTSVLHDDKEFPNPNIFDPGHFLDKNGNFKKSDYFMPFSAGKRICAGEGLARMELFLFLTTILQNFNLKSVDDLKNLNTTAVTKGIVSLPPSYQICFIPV
Assay: Inhibition of CYP2C8
Format: ADME
MEASURED_PARAMETER: IC50 (µM)
Reply numerically in µM, unit not repeated.

The compound identified as O=C(O)CCC1(c2ccccc2)CCCN(C(=O)Nc2ccc(Cl)cc2)C1 (stereo in doubt) registered its IC50 at 65

* * *

molecular target: Bifunctional epoxide hydrolase 2 (Rattus norvegicus, UniProt P80299); assay: Inhibition of rat soluble epoxide hydrolase
Sequence (P80299 whole entry): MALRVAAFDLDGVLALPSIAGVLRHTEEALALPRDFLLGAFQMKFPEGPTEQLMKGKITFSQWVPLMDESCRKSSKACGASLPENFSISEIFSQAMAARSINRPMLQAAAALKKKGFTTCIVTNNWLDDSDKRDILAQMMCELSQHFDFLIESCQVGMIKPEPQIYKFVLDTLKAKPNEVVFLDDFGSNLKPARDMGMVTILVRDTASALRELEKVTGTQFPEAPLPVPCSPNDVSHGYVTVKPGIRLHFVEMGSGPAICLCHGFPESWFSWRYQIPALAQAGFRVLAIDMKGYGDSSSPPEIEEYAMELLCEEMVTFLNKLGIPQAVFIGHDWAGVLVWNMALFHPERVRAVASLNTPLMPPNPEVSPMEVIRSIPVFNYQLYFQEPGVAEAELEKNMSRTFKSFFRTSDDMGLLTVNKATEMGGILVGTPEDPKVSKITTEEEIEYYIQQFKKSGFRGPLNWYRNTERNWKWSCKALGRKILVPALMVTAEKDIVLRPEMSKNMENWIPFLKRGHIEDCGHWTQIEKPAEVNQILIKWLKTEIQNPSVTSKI
MEASURED_PARAMETER: log10 of IC50 (log10 of the value in nM)
Reminder: these figures are log10 of reported IC50, in nM before transformation.

Form: compound = O=C(O)CCC1(c2ccccc2)CCCN(C(=O)Nc2ccc(Cl)cc2)C1 (stereo in doubt) ; log10 of IC50 = 1.84

Looking up CC1(c2ccccc2)CCCN(C(=O)NCc2ccc(-c3cccc(Cl)c3)cc2)C1 (stereo not given) , I see its log10 of IC50 listed as 0.85

// log10 of IC50 value for O=C(O)CCC1(c2cccc(C(F)(F)F)c2)CCCN(C(=O)Nc2ccc(Cl)cc2)C1 (stereo not given) : 2.25

Given item NC(=O)CCC1(c2ccccc2)CCCN(C(=O)Nc2ccc(Cl)cc2)C1 (stereo not given) , the value recorded as its log10 of IC50 is 1.41

Documented log10 of IC50 of CCN(CC)C(=O)CCC1(c2ccccc2)CCCN(C(=O)Nc2ccc(Cl)cc2)C1 (stereo not given) : 1.49

Quick note, log10 of IC50 for CC1(c2ccccc2)CCCN(C(=O)NCCc2ccc3nc[nH]c3c2)C1 (stereo not given) landed at 1.41

Entry CC1(c2ccccc2)CCCN(C(=O)NCCc2ccc(Cl)cc2)C1 (stereo not given) — recorded log10 of IC50 = 0.70

For reference, reported log10 of IC50 for O=C(O)CCCCC1(c2ccccc2)CCCN(C(=O)Nc2ccc(Cl)cc2)C1 (stereo not given) stands at 2.08

GET /value?item= O=C(O)CCC1(c2ccccc2C(F)(F)F)CCCN(C(=O)Nc2ccc(Cl)cc2)C1 (stereo not given) &field=log10 of IC50 returns 1.85

Sure, the documented log10 of IC50 for COC(=O)CCC1(c2ccccc2)CCCN(C(=O)Nc2ccc(Cl)cc2)C1 (stereo not given) is 0.48

* * *

biological target: Bifunctional epoxide hydrolase 2 (Homo sapiens); assay: Inhibition of human soluble epoxide hydrolase in HEK293 cells assessed as DHET production; format: cell-based
pIC50: −log10 of the molar value.
Record form. Attribute: pIC50. Fill in for each entry.

Test item O=C(O)CCCCC1(c2ccccc2)CCCN(C(=O)Nc2ccc(Cl)cc2)C1 (centres undefined) ; Bifunctional epoxide hydrolase 2 (Homo sapiens); reported pIC50 was > 9.00

Record for O=C(Nc1ccc(Cl)cc1)N1CCCC(CCCO)(c2ccccc2)C1 (centres undefined) under target or system Bifunctional epoxide hydrolase 2 (Homo sapiens): pIC50 reported as > 9.00

pIC50 value, target or system Bifunctional epoxide hydrolase 2 (Homo sapiens), for O=C(CCC1(c2ccccc2)CCCN(C(=O)Nc2ccc(Cl)cc2)C1)Nc1nn[nH]n1 (centres undefined) : 8.85

Reported Bifunctional epoxide hydrolase 2 (Homo sapiens) pIC50 for item O=C(CCC1(c2ccccc2)CCCN(C(=O)Nc2ccc(Cl)cc2)C1)N1CCOCC1 (centres undefined) was > 9.00

Entry CC1(c2ccccc2)CCCN(C(=O)NCCCc2cccnc2)C1 (centres undefined) : pIC50 on Bifunctional epoxide hydrolase 2 (Homo sapiens) = 8.10

Log: Bifunctional epoxide hydrolase 2 (Homo sapiens), molecule CC1(c2ccccc2)CCCN(C(=O)NCc2ccc(-c3ccccn3)cc2)C1 (centres undefined) , pIC50 = > 9.00

Query NC(=O)CCC1(c2ccccc2)CCCN(C(=O)Nc2ccc(Cl)cc2)C1 (centres undefined) on Bifunctional epoxide hydrolase 2 (Homo sapiens); pIC50 returned: > 9.00

Bench note, Bifunctional epoxide hydrolase 2 (Homo sapiens): entry CC1(c2ccccc2)CCCN(C(=O)Nc2ccc(Cl)cc2)C1 (centres undefined) , its pIC50 = > 9.00

Lab note: molecule O=C(O)CCC1(c2ccc(C(F)(F)F)cc2)CCCN(C(=O)Nc2ccc(Cl)cc2)C1 (centres undefined) tested on Bifunctional epoxide hydrolase 2 (Homo sapiens); recorded pIC50 was > 9.00

* * *

Kindly supply the reported clearance values for the records listed here.
assay: Clearance in rat at 1 mg/kg, iv and 2 mg/kg, po; format: ADME, organism-based; details: in vivo
Response body: numeric value in mL/min/kg, unit text excluded.

So for O=C(Nc1ccc(Cl)cc1)N1CCCC(CCc2nn[nH]n2)(c2ccccc2)C1 (centres undefined) , the logged clearance turned out to be 124

CC1(c2ccccc2)CCCN(C(=O)Nc2ccc(Cl)cc2)C1 (centres undefined) has a reported clearance of 43

NC(=O)CCC1(c2ccccc2)CCCN(C(=O)Nc2ccc(Cl)cc2)C1 (centres undefined) yielded clearance of 116

clearance measured on O=C(O)CCC1(c2ccccc2)CCCN(C(=O)Nc2ccc(Cl)cc2)C1 (stereo in doubt; 2b) = 4
